FYI, the data here is from the supplement of paper PMC6555819.

test system: LXRb homodimer (NR concentration 270 nM); assay: PBM binding z-score (relative to random genomic background probes); higher = stronger binding; sequences stand for … in GC…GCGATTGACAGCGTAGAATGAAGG
Tick criterion met if PBM binding z-score is -0.09 or greater. Tick criterion not met if PBM binding z-score is less than -0.09.

sequence-string: TCATATAGGTAAAAGGTGAAGGTCGGTGTGGTAA
class: criterion met

sequence-string: GATACAGGGTCAGCTAGAGGCCAGAGGATGGAAA
class: criterion not met

sequence-string: CAAACTAGGTCACGAAAGGTCAGAGTCGAATGAC
class: criterion met

sequence-string: ATATGTAGGTAAAGGGTCATTCAGGTTGGTTCGC
class: criterion met

sequence-string: ATATGTAGGTTAGCTGGGGTCATGCAGACTAGGC
class: criterion met

sequence-string: CAAACTAGGACACAGAGGTCAAAGTCCGTGCGTA
class: criterion met

sequence-string: TCATATAGGTAAATGCCAGGTGAAAGTCCGATCT
class: criterion met

sequence-string: TGATATAGGTAAATGCTAGGTGAAAGTCCGATCT
class: criterion not met

sequence-string: CCTTCCGGGTCAAGGTTATAGCACGGGTGGTACG
class: criterion met

sequence-string: TCTTGTAGATCAATAGAGGTAAAGAAAGTGCGCT
class: criterion not met

sequence-string: AGTCAAAGTTCAGGGCGAGGTAACGTAAAGCACG
class: criterion met

sequence-string: CAAACTAGGTCACCGGAAGGGCAAAGTCCGCATG
class: criterion met

sequence-string: GCTGGTTGGTCAGTAAAAGGTCACACACCGGTCG
class: criterion met

sequence-string: CCTCGGAGGACAAGAGGAGGTCAGAGCTGCCAGA
class: criterion not met

sequence-string: CAAATTAGGTCACAGAGGTCAAAGTCCGTGCGTA
class: criterion met

sequence-string: TCGATTAGTTGATTAGGGCAACCGAAACAGCGGA
class: criterion not met

sequence-string: CAAACTAGGTCGAGGTCAAAGTCGGTTTGTGCCA
class: criterion met

sequence-string: TCATATAGGTAAAAGGTGAAAGACGGTGTGGTAA
class: criterion met

sequence-string: TGATTGAGGTTAAAGATCAGGGAACGTGGCGTCG
class: criterion met

sequence-string: TGTCGGAGGACACGAAGGTCAGAGCTTTCCAGAG
class: criterion not met

sequence-string: CCGACTGGGGCATAAGGTTACCAAAAGCCAGCCC
class: criterion not met

sequence-string: CCTTACGGGTCACAGACAGGTTATAGCATTTGGA
class: criterion met

sequence-string: GATACAGGGTCAGGGCCAGAGTACGCGTATTGAT
class: criterion not met

sequence-string: ATACGTAGGTTAAGGGTCATTCAGGTTGGTTCGC
class: criterion met

sequence-string: CCTACTGGGCCACGAAAGTTCATTGATTCAGTGA
class: criterion met

---

tested on: FXR:RXRa (NR concentration 270 nM, RXRa partner concentration 90 nM); assay: PBM binding z-score (relative to random genomic background probes); higher = stronger binding; sequences stand for … in GC…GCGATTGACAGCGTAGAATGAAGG
metric-name: PBM binding z-score

sequence-string: TCTTGTAGATCAACAGGACGTTAAGAAAGATCGA
metric-name: PBM binding z-score
numeric-value: 0.291
//
sequence-string: TAGCCTAGGCCATGCGGGCCAGTATAGTGTCGGC
metric-name: PBM binding z-score
numeric-value: -0.771
//
sequence-string: GATACAGGGTCAGCTAGGGGCCAGAGTATGGAAA
metric-name: PBM binding z-score
numeric-value: 5.14
//
sequence-string: CCTACTGGGCCACAAAAGGTCATTGATTCAGTGA
metric-name: PBM binding z-score
numeric-value: 3.28
//
sequence-string: GCTCGGAGGACAGGGTCAGAGCTTTGTCCGTAGA
metric-name: PBM binding z-score
numeric-value: 1.13
//
sequence-string: CGTCCAAGGTCAGAGAGGTGAGTGAATGCCGAGT
metric-name: PBM binding z-score
numeric-value: 4.98
//
sequence-string: GCATATGGGTAATACAAGGTGAAAGTCCGATTGT
metric-name: PBM binding z-score
numeric-value: 0.428
//
sequence-string: CATACAGGGTCAGCTAGGACAGAGTAGGGACGGC
metric-name: PBM binding z-score
numeric-value: 4.48
//
sequence-string: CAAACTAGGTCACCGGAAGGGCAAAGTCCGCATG
metric-name: PBM binding z-score
numeric-value: 4.22
//
sequence-string: TCGAGTAGGTTAGTCGGGGCGTTCAGCCAACATA
metric-name: PBM binding z-score
numeric-value: -0.0524
//
sequence-string: AGTCAAAGTTCATCGAGGTAACGTAAGATATGCT
metric-name: PBM binding z-score
numeric-value: 6.65
//
sequence-string: CGAACTAGGTCAAGGAGAGTGAATCTCCGCACGC
metric-name: PBM binding z-score
numeric-value: 2.98
